# measured.on: prolyl tRNA synthetase domain of human EPRS (ProRS) (Homo sapiens, UniProt P07814)
# Sequence (P07814 998-1512): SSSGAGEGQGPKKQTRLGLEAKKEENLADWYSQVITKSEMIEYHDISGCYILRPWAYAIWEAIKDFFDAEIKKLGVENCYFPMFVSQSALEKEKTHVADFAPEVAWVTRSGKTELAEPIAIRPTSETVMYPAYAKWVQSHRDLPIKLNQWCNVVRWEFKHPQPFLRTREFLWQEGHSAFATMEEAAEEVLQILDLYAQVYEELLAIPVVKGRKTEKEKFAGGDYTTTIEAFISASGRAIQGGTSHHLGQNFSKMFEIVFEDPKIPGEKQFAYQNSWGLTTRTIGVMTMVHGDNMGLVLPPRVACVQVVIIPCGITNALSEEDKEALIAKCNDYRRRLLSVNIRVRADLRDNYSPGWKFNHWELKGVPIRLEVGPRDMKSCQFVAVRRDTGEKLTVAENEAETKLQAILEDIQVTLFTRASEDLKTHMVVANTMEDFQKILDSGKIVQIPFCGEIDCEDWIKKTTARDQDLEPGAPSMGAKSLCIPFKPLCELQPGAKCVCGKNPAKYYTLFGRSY
experimental.endpoint: Ki

INSERT INTO assay_data (compound, experimental_endpoint, result) VALUES
  ('O=C(CC1NCCCC1O)Cn1cnc2cc(Br)c(Cl)cc2c1=O (stereo not shown) [HF, halofuginone]', 'Ki', '18.3 nM');
